# Test system: human embryonic stem cell derived neural stem cells (NSCs)
# assay notes: Neural Stem Cell Proliferation Assay (neurogenesis assay, ATP levels by CellTiterGlo)
# Format: cell-based
# settings: 96 h, compound concentration at which 150% activity of control (100%) is reached, NSC proliferation by ATP level after 4 days incubation, dose response 8 μM to 8 nM
EC (150% of control) less than 0.06 µM is true; EC (150% of control) greater than or equal to 0.06 µM is false.

Would you please look over these solved cases?
>  <compound>
Cc1c2n(c3c(-c4ccc(OC(F)(F)F)cc4)cc(C#N)cc13)CCCNC2=O

>  <label>
true

$$$$
>  <compound>
N#Cc1cc(-c2ccccc2)c2c(c1)cc1n2CCCNC1=O

>  <label>
false

$$$$
>  <compound>
O=C1NCCCn2c1cc1cc(F)cc(-c3ccc(C(F)(F)F)cc3)c12

>  <label>
true

$$$$
>  <compound>
C[C@@H]1CNC(=O)c2cc3cc(F)cc(-c4ccc(Cl)cc4)c3n21

>  <label>
false

$$$$
>  <compound>
N#Cc1cc(-c2ccc(Cl)c(F)c2)c2c(c1)cc1n2CCNC1=O

>  <label>
true

$$$$
>  <compound>
Cc1c2n(c3c(-c4ccc(CO)cc4)cc(F)cc13)CCNC2=O

>  <label>
true

$$$$
>  <compound>
CC1CCNC(=O)c2cc3cc(F)cc(-c4ccc(F)cc4)c3n21 (racemic)

>  <label>
false

$$$$
>  <compound>
Cc1c2n(c3c(-c4ccc5c(c4)CCO5)cc(F)cc13)CCNC2=O

>  <label>
true

$$$$

[ask] Quick check: does Cc1c2n(c3c(-c4ccc(OC(F)(F)F)cc4)cc(F)cc13)CCNC2=O have EC (150% of control) under 0.06 µM?
[reply] true

[ask] Threshold test, EC (150% of control) < 0.06 µM: Cc1ccc(-c2cc(Cl)cc3cc4n(c23)CCCNC4=O)cc1
[reply] false

---

# Test system: human embryonic stem cell derived neural stem cells (NSCs)
# assay notes: Neural Stem Cell Proliferation Assay (neurogenesis assay, ATP levels by CellTiterGlo)
# Format: cell-based
# settings: 96 h, compound concentration at which 150% activity of control (100%) is reached, NSC proliferation by ATP level after 4 days incubation, dose response 8 μM to 8 nM
Each record's EC (150% of control) is compared with one = under 0.05 µM, two = from 0.05 µM up to 0.2 µM, three = 0.2 µM and over to give its class.

Before answering, review these 4 worked examples.
>  <smiles code>
O=C1NCCCn2c1cc1cc(Cl)cc(-c3ccc(Cl)cc3)c12

>  <label>
two

$$$$
>  <smiles code>
COc1ccc(-c2cc(F)cc3cc4n(c23)CCCNC4=O)cc1

>  <label>
one

$$$$
>  <smiles code>
Cc1c2n(c3c(-c4cncnc4)cc(F)cc13)CCNC2=O

>  <label>
three

$$$$
>  <smiles code>
N#Cc1cc(-c2ccc(Cl)nc2)c2c(c1)cc1n2CCNC1=O

>  <label>
three

$$$$

[ask] Please indicate the class for COc1ccc(-c2cc(F)c(F)c3cc4n(c23)CCNC4=O)cc1 based on its EC (150% of control).
[reply] three

[ask] Lab log: N#Cc1cc(-c2ccc(Cl)cc2)c2c(c1)cc1n2CCNC1=O — assign EC (150% of control) category
[reply] one

[ask] For the record C[C@@H]1CNC(=O)c2cc3cc(F)cc(-c4ccc(C(F)(F)F)cc4)c3n21 , report the class its EC (150% of control) corresponds to.
[reply] two

[ask] Place this compound in its band: N#Cc1cc(-c2ccncc2)c2c(c1)cc1n2CCCNC1=O
[reply] three

[ask] Category of Cc1cc(-c2ccc(F)cc2)c2c(c1)cc1n2CCCNC1=O :
[reply] three

[ask] Which class holds Cc1ccc(-c2cc(C#N)cc3cc4n(c23)CCNC4=O)cc1F ?
[reply] two

[ask] Sort into band: Cc1c2n(c3c(-c4cc(F)cc(F)c4)cc(F)cc13)CCNC2=O
[reply] two

[ask] // return the class label for Cc1c2n(c3c(-c4ccc(Cl)c(F)c4)cc(C#N)cc13)CCNC2=O
[reply] one

The measured values listed here are drawn from patent US9284321B2.
